Target: TNKS2 (Homo sapiens)
Experiment: Modified TNKS2 Assay 2 (auto-parsylation, [3H]-NAD+ SPA)
Assay type: biochemical
Conditions: 6 nM TNKS2, 96 well
Procedure: The potency of selected compounds according to the invention was assessed applying an modified in vitro inhibition assay. Here, the TNKS2 catalyzed NAD^+-dependent ribosylation of the enzyme itself (auto-parsylation) was detected using [^3H]-NAD^+ as substrate and applying the scintillation proximity assay (SPA) method to detect tritium-labeled, parsylated TNKS2. The intensity of the readout signal is proportional to the incorporated [^3H]-NAD^+. […]
measurement-label: IC50 (nM)

Examples from the recorded data:
INSERT INTO measurements (compound, measurement_label, numeric_value) VALUES
  ('O=C(Nc1ccc(NC(=O)c2nc[nH]c2C(=O)NCCF)cc1)c1ccccc1Cl [Example 166]', 'IC50', 330),
  ('CNC(=O)c1nc[nH]c1C(=O)Nc1ccc(NC(=O)c2cc(C#N)ccc2F)cc1 [Example 349]', 'IC50', 2200),
  ('CNC(=O)c1nc[nH]c1C(=O)Nc1ccc(NC(=O)c2cc(F)ccc2OC)cc1 [Example 364]', 'IC50', 7900),
  ('CNC(=O)c1nc[nH]c1C(=O)Nc1ccc(NC(=O)c2cccc(OC)c2Cl)cc1 [Example 252]', 'IC50', 3800);

1. COC(=O)c1nc[nH]c1C(=O)Nc1ccc(NC(=O)c2ccc(F)cc2Cl)c(F)c1 [Example 71]
2. O=C(Nc1ccc(NC(=O)c2[nH]cnc2C(=O)NCCc2ccccc2)cc1)c1ccc(F)cc1Cl [Example 384]
Which record shows the lower IC50: the first, 1 , or the second, 2 ? Record your answer as the label of the chosen record.
1
(1: 110 nM, 2: 1700 nM)

---

Target: TNKS2 (Homo sapiens)
Sequence (Q9H2K2 1-1166): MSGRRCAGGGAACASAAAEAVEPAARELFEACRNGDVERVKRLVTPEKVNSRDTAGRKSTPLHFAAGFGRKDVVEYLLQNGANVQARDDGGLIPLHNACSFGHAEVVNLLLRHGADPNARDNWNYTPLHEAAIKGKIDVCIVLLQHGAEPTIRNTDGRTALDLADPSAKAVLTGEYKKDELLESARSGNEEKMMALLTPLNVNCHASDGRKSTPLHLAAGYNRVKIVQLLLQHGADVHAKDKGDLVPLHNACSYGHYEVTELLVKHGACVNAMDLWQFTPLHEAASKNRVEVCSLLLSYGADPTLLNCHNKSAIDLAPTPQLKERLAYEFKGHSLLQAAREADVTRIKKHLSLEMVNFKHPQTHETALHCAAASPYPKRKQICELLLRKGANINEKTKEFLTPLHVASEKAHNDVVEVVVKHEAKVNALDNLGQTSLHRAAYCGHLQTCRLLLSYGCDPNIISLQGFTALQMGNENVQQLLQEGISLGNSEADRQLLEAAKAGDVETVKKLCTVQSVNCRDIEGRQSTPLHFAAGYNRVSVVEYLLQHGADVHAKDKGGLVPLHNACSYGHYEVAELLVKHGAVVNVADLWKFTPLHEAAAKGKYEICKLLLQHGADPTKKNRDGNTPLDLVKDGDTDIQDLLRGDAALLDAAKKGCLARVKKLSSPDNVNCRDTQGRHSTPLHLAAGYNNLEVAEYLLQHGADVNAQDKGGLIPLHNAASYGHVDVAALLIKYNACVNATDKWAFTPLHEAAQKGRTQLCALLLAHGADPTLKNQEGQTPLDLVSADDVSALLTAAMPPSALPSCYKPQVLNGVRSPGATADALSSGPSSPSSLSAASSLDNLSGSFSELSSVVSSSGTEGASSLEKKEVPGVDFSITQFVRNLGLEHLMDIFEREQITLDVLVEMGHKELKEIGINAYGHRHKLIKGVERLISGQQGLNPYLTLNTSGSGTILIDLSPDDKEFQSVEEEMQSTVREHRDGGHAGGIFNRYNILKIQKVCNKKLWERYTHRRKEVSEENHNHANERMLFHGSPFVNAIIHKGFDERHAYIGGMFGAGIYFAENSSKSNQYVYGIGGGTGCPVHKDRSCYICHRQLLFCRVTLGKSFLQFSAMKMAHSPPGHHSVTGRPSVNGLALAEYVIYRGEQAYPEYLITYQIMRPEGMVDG
Test: Modified TNKS2 Assay 2 (auto-parsylation, [3H]-NAD+ SPA)
Format: biochemical
Conditions: 6 nM TNKS2, 96 well
measurement-label: IC50 (nM)

Examples from the recorded data:
INSERT INTO measurements (compound, unit_text, numeric_value) VALUES
  ('CNC(=O)c1nc[nH]c1C(=O)Nc1ccc(NC(=O)c2ccc(F)cc2Cl)cc1 [Example 12]', 'nM', 60),
  ('CNC(=O)c1nc[nH]c1C(=O)Nc1ccc(NC(=O)c2cccc(Cl)c2Cl)cc1 [Example 1]', 'nM', 3300),
  ('CNC(=O)c1nc[nH]c1C(=O)Nc1ccc(NC(=O)c2cnccc2Cl)cc1 [Example 254]', 'nM', 430);

I. O=C(Nc1ccc(NC(=O)c2[nH]cnc2C(=O)NC2CC2)cc1)c1cc(F)c(F)cc1Cl [Example 51]
II. O=C(Nc1ccc(NC(=O)c2nc[nH]c2C(=O)NCC2CCOCC2)cc1)c1ccc(F)cc1Cl [Example 397]
Which entry has a larger number for IC50, I or II ? Record your answer as the label of the chosen record.
II
(II: 200 nM, I: 50 nM)

1. O=C(Nc1ccc(NC(=O)c2nc[nH]c2C(=O)NC(CO)CO)cc1)c1ccccc1Cl [Example 157]
2. CNC(=O)c1nc[nH]c1C(=O)Nc1ccc(NC(=O)c2ccc(OCCN(C)C)cc2Cl)cc1 [Example 25]
Which entry has a larger number for IC50, 1 or 2 ? Record your answer as the label of the chosen record.
1
(1: 1400 nM, 2: 220 nM)

---

target: TNKS2 (Homo sapiens, UniProt Q9H2K2); test: Modified TNKS2 Assay 3 (BPS kit #80578, biotin-NAD+, 96 well); assay type: biochemical; settings: human TNKS2, BPS kit #80578, 96 well
pIC50: −log10 of the molar value.
measurement-label: pIC50

Examples from the recorded data:
INSERT INTO results (compound, numeric_value) VALUES
  ('CN(C)CCNC(=O)c1nc[nH]c1C(=O)Nc1ccc(NC(=O)c2ccc(S(C)(=O)=O)cc2Cl)cc1', 8.22),
  ('CNC(=O)c1nc[nH]c1C(=O)Nc1ccc(NC(=O)c2cc(OC)c(OC)cc2Cl)cc1', 7.52),
  ('CC(CNC(=O)c1[nH]cnc1C(=O)Nc1ccc(NC(=O)c2ccc(F)cc2Cl)cc1)N1CCCCC1 (stereo not shown)', 8.70),
  ('O=C(Nc1ccc(NC(=O)c2nc[nH]c2C(=O)NCCN2CCC(F)(F)CC2)cc1)c1ccccc1Cl', 7.15);

a. O=C(Nc1ccc(NC(=O)c2nc[nH]c2C(=O)NCC2CCCO2)cc1)c1ccc(F)cc1Cl (stereo not shown)
b. CN1CCN(CCCNC(=O)c2nc[nH]c2C(=O)Nc2ccc(NC(=O)c3ccc(F)cc3Cl)cc2)CC1
Which entry has a larger number for pIC50, a or b ? Record your answer as the label of the chosen record.
b
(b: 8.15, a: 6.64)

---

Target: TNKS2 (Homo sapiens, UniProt Q9H2K2)
Assay: Modified TNKS2 Assay 2 (auto-parsylation, [3H]-NAD+ SPA)
Assay type: biochemical
Details: 6 nM TNKS2, 96 well
Procedure: The potency of selected compounds according to the invention was assessed applying an modified in vitro inhibition assay. Here, the TNKS2 catalyzed NAD^+-dependent ribosylation of the enzyme itself (auto-parsylation) was detected using [^3H]-NAD^+ as substrate and applying the scintillation proximity assay (SPA) method to detect tritium-labeled, parsylated TNKS2. The intensity of the readout signal is proportional to the incorporated [^3H]-NAD^+. […]
measurement-label: IC50 (µM)

Examples from the recorded data:
INSERT INTO assay_data (compound, measurement_label, numeric_value) VALUES
  ('CC(CNC(=O)c1[nH]cnc1C(=O)Nc1ccc(NC(=O)c2ccccc2Cl)cc1)N1CCCCC1 (stereo not shown)', 'IC50', 0.01),
  ('CNC(=O)c1nc[nH]c1C(=O)Nc1ccc(NC(=O)c2c(Cl)cccc2Cl)cc1', 'IC50', 1.6),
  ('COc1cc(NC(=O)c2[nH]cnc2C(=O)NCCN(C)C)ccc1NC(=O)c1ccccc1Cl', 'IC50', 0.16),
  ('CCc1ccccc1C(=O)Nc1ccc(NC(=O)c2[nH]cnc2C(=O)NC)cc1', 'IC50', 2.2),
  ('CN(C)C(=O)c1nc[nH]c1C(=O)Nc1ccc(NC(=O)c2ccc(F)cc2Cl)cc1', 'IC50', 3.4),
  ('O=C(Nc1ccc(NC(=O)c2[nH]cnc2C(=O)NCCN2CCCCC2)cc1)c1ccc(F)cc1Cl', 'IC50', 0.0003),
  ('O=C(Nc1ccc(NC(=O)c2nc[nH]c2C(=O)NCCN2CCCC2)cc1)c1ccc(F)cc1', 'IC50', 0.06),
  ('CN(C)CCNC(=O)c1nc[nH]c1C(=O)Nc1ccc(NC(=O)c2ccc(F)cc2Cl)cc1', 'IC50', 0.02);

1. CNC(=O)c1nc[nH]c1C(=O)Nc1ccc(NC(=O)c2ccccc2Cl)nc1
2. O=C(Nc1ccc(NC(=O)c2nc[nH]c2C(=O)NCCN2CCCC(F)C2)cc1)c1ccc(F)cc1Cl (stereo not shown)
3. CCN1CCC[C@@H]1CNC(=O)c1nc[nH]c1C(=O)Nc1ccc(NC(=O)c2ccc(F)cc2Cl)cc1
Rank items: key IC50, increasing. Please respond by ranking the labels in the order requested.
2, 3, 1
(2: 0.002 µM, 3: 0.09 µM, 1: 0.37 µM)

P. COC(=O)c1nc[nH]c1C(=O)Nc1ccc(NC(=O)c2ccccc2Cl)c(C)c1
Q. CN(C)CCNC(=O)c1nc[nH]c1C(=O)Nc1ccc(NC(=O)c2ccc(F)cc2Cl)c(F)c1
Which record shows the lower IC50: the first, P , or the second, Q ? Record your answer as the label of the chosen record.
Q

Source listed as patent US9884063B2.
